// reported max response for each item listed
test system: KB-3-1; test: Cytotoxic Profiling of Annotated Libraries Using Quantitative High-Throughput Screening (AID 1296008); details: Five cell lines viability, CellTiter-Glo ATP luminescence, 48-72 h; hits give low values; further: on the % scale 0 is the no-effect control and ±100 the full control effect; nearly all actives have a fitted effect of over 60% in size
Inconclusive results are not listed.
parameter-measured: max response (%)

[[record]]
molecule = "O=C1C=CC[C@@H]2[C@H]3CCCN4CCC[C@@H](CN12)[C@@H]34"
tested_system = "KB-3-1"
parameter_measured = "max response"
observed_measurement = 5.89

[[record]]
molecule = "CCOCCOC(C)=O"
tested_system = "KB-3-1"
parameter_measured = "max response"
observed_measurement = -19.2

[[record]]
molecule = "COc1nn(CSP(=S)(OC)OC)c(=O)s1"
tested_system = "KB-3-1"
parameter_measured = "max response"
observed_measurement = -23.4

[[record]]
molecule = "S=C(NC1CCCCC1)N1CCC(c2cnc[nH]2)CC1"
tested_system = "KB-3-1"
parameter_measured = "max response"
observed_measurement = -10.7

[[record]]
molecule = "CC(C)(C)NC[C@H](O)c1ccc(O)cc1Cl"
tested_system = "KB-3-1"
parameter_measured = "max response"
observed_measurement = 9.37

[[record]]
molecule = "CCNC(=O)CC1N=C(c2ccc(Cl)cc2)c2cc(OC)ccc2-n2c(C)nnc21 (stereo unspecified)"
tested_system = "KB-3-1"
parameter_measured = "max response"
observed_measurement = -3.15

